Origin of measurements: ChEMBL document CHEMBL3885881

# Organism: Rattus norvegicus
# assay_notes: DrugMatrix - Regimen: Daily Repeat
# Type: toxicity, organism-based, Sprague-Dawley
# Design: regimen Daily Repeat, gender Male, age 6-8 weeks
# condition: in vivo, po, 80 mg/kg, 2184 h, tissue Blood, route oral GAVAGE, dose level High, time 91 day, vehicle .5 % CMC
endpoint: ABSOLUTE EOSINOPHIL

-- ask Field request: ABSOLUTE EOSINOPHIL | item: `O=c1cc(-c2ccccc2)oc2c1ccc1ccccc12`
-- reply 100 cells/µL

====

This section presents compounds with their documented HEMOGLOBIN values.
# Species: Rattus norvegicus
# assay_notes: DrugMatrix - Regimen: Daily Repeat
# Assay type: toxicity, organism-based, Sprague-Dawley
# Design: regimen Daily Repeat, gender Male, age 6-8 weeks
# condition: in vivo, po, 2000 mg/kg, 72 h, tissue Blood, route oral GAVAGE, dose level High, time 3 day, vehicle .5 % CMC
Return type: number; implicit unit G/DL.

| compound | unit_abbrev | HEMOGLOBIN |
| --- | --- | --- |
| CC(C)[C@H](N)C(=O)OCCOCn1cnc2c(=O)[nH]c(N)nc21 | G/DL | 12.63 |
| CC(=O)O[C@]1(C(C)=O)CC[C@H]2[C@@H]3C=C(Cl)C4=CC(=O)CC[C@]4(C)[C@H]3CC[C@@]21C [CHLORMADINONE ACETATE] | G/DL | 14.6 |
| NCC(=O)O | G/DL | 14 |

-- ask Field request: HEMOGLOBIN | item: NCCCC[C@H](N[C@@H](CCc1ccccc1)C(=O)O)C(=O)N1CCC[C@H]1C(=O)O [LISINOPRIL ANHYDROUS]
-- reply 13.17
